Test: Half life in cynomolgus monkey at 1 mg/kg, iv by LC/MS/MS analysis
Assay type: ADME, organism-based, Macaca fascicularis
Conditions: in vivo
QUANTITY_KIND: half-life (h)
The figure you give is taken to be in h; do not add the unit.

Ask: Quote half-life reported for C[C@@H]1c2ncn(-c3ccc(F)cn3)c2CCN1C(=O)c1cccc(C(F)(F)F)c1Cl please.
Result: 4.2

###

Experiment: Cmax in Beagle dog at 5 mg/kg, po after 0.033 to 24 hrs by LC/MS/MS analysis
Format: ADME, organism-based, Canis lupus familiaris
Design: dose 5 mg/kg, route oral
Conditions: in vivo
QUANTITY_KIND: Cmax (ng/mL)
The figure you give is taken to be in ng/mL; do not add the unit.

Ask: Quote Cmax reported for C[C@@H]1c2ncn(-c3ccc(F)cn3)c2CCN1C(=O)c1cccc(C(F)(F)F)c1Cl please.
Result: 1250

Reference for the values: ChEMBL document CHEMBL3856233
